- Test system: 786-O
- ASSAY COMMENT: Euclidean distance of Cell Painting phenotypic profile (signed KS, 77 features) to DMSO centroid (dimensionless distance); 5 or 10 uM (library dependent); higher = stronger phenotypic change vs DMSO (phenoactivity)
- COND: 48 h
EXPERIMENTAL ENDPOINT: Euclidean distance

>>> df
                                   molecule  numeric_value
0  C=CC(=O)Nc1cccc(Nc2nc(Nc3ccc(Oc4ccnc(C(=O)NC)c4)cc3)ncc2F)c1           1.82
1  CNC(=O)CN(CCN(CCN(CC(=O)[O-])CC(=O)NC)CC(=O)[O-])CC(=O)[O-].[Gd+3] [Gadodiamide]          0.953
2  CNC(=O)c1ccc(-c2cnc3ncc(Cc4ccc5ncccc5c4)n3n2)cc1F           1.36
3  CCN1CCN(Cc2ccc(-c3cc4c(N[C@H](C)c5ccccc5)ncnc4[nH]3)cc2)CC1           2.34
4  O=S(=O)(c1ccccc1)c1cnc2c(N3CCNCC3)cccc2c1           0.96
5     C[n+]1ccccc1C=NO [Pralidoxime Iodide]           1.45
6  CCOc1ccc2c(-c3cccc(F)c3)nn(CC(=O)N(C)c3ccc4nc(C)oc4c3)c(=O)c2c1           1.05
7  CCC(=O)Oc1ccc2c(c1)CCC1C2CCC2(C)C(OC(=O)CC)CCC12 (stereo not drawn) [17-Beta-Estradiol-3.17-Dipropionate]           1.55
8  CNC(=O)c1nn(C)c2c1C(C)(C)Cc1cnc(Nc3ccc(N4CCN(C)CC4)cc3)nc1-2            2.4

* * *

Let's look at some compounds and their measured Euclidean distance.
- System: 786-O
- ASSAY COMMENT: Euclidean distance of Cell Painting phenotypic profile (signed KS, 77 features) to DMSO centroid (dimensionless distance); 5 or 10 uM (library dependent); higher = stronger phenotypic change vs DMSO (phenoactivity)
- COND: 48 h
Counter-ions that a name gives are not always drawn.
EXPERIMENTAL ENDPOINT: Euclidean distance

>>> df
                                    compound  assay_target  numeric_value
 0  N[C@@H](CC(=O)N1CCn2c(nnc2C(F)(F)F)C1)Cc1cc(F)c(F)cc1F [Sitagliptin phosphate monohydrate]         786-O          0.554
 1  Cc1cccn2c(=O)c(-c3nnn[nH]3)cnc12 [Pemirolast potassium]         786-O           1.31
 2  Cc1ccccc1C(=O)Nc1ccc(C(=O)N2CCCC(O)c3cc(Cl)ccc32)c(C)c1 (stereo not drawn) [Tolvaptan]         786-O            1.6
 3              Oc1c2ccccc2c2c3c(cccc13)N=N2         786-O           1.18
 4  COc1cc2nc(N(C)CCCNC(=O)C3CCCO3)nc(N)c2cc1OC (stereo not drawn) [Alfuzosin HCl]         786-O          0.985
 5  CC1CNc2c(cccc2S(=O)(=O)N[C@@H](CCCNC(=N)N)C(=O)N2CC[C@@H](C)C[C@@H]2C(=O)O)C1 (stereo partly drawn) [Argatroban]         786-O          0.618
 6  Cc1ccc(Cl)cc1N(CC(=O)Nc1c(F)cccc1F)S(C)(=O)=O         786-O          0.896
 7  O=C(O)COCCN1CCN(C(c2ccccc2)c2ccc(Cl)cc2)CC1 (stereo not drawn) [Cetirizine DiHCl]         786-O           1.09
 8  CC(=O)[C@@]1(O)CC[C@H]2[C@@H]3C[C@H](C)C4=CC(=O)C=C[C@]4(C)[C@@]3(F)[C@@H](O)C[C@@]21C [Fluorometholone]         786-O          0.819
 9         CSCC[C@H](N)C(=O)O [L-methionine]         786-O           1.08
10  CS(=O)(=O)c1cccc(C[C@H](NC(=O)c2c(Cl)cc3c(c2Cl)CCN(C(=O)c2ccc4ccoc4c2)C3)C(=O)O)c1 [Lifitegrast]         786-O           1.08
11  Cn1cc(C(=O)[C@@H]2CCc3[nH]cnc3C2)c2ccccc21 [Ramosetron Hydrochloride]         786-O           1.07
12  CC(C)NC[C@@H](C(=O)N1CCN(c2ncnc3c2[C@H](C)C[C@H]3O)CC1)c1ccc(Cl)cc1         786-O           2.01
13  Nc1nc2c(ncn2COC(CO)CO)c(=O)[nH]1 [Ganciclovir]         786-O           1.56
14  CCCOc1ccc2[nH]c(NC(=O)OC)nc2c1 [Oxibendazole]         786-O           2.66
15  COc1cc(C(=O)NCc2ccc(OCCN(C)C)cc2)cc(OC)c1OC [Tribenzagan Hydrochloride]         786-O           1.18
16  COc1cc(Nc2ncc(F)c(Nc3ccc4c(n3)N(COP(=O)(O)O)C(=O)C(C)(C)O4)n2)cc(OC)c1OC [Fostamatinib (R788)]         786-O           2.67
17  C[C@@H]1COC(Nc2ccc3ncnc(Nc4ccc(OCc5nccs5)c(Cl)c4)c3c2)=N1 [Varlitinib]         786-O           1.45
18  CC(=O)O[C@]1(C(C)=O)CC[C@H]2[C@@H]3C=C(C)C4=CC(=O)CC[C@]4(C)[C@H]3CC[C@@]21C [Megestrol Acetate]         786-O           1.71
19  NCc1ccccc1CC(=O)N[C@@H]1C(=O)N2C(C(=O)O)=C(CSc3nnnn3CC(=O)O)CS[C@H]12 [Ceforanide]         786-O          0.783
20  CCc1cnn2c(NCc3ccc[n+]([O-])c3)cc(N3CCCC[C@H]3CCO)nc12         786-O           3.35
21  CC1=C(C(=O)O)N2C(=O)[C@@H](NC(=O)[C@H](N)C3=CCC=CC3)[C@H]2SC1 [Cefradine]         786-O          0.837
22  Cc1cn([C@@H]2C[C@@H](O)[C@H](CO)O2)c(=O)[nH]c1=O [Telbivudine]         786-O           1.15
23  C=CCn1c(=O)c2cnc(Nc3ccc(N4CCN(C)CC4)cc3)nc2n1-c1cccc(C(C)(C)O)n1         786-O           3.28
24        CC12CCC(CC1)C(C)(C)O2 [Eucalyptol]         786-O          0.884
25  CC#CC(=O)N1CCC[C@H]1c1nc(-c2ccc(C(=O)Nc3ccccn3)cc2)c2c(N)nccn12 [Acalabrutinib (ACP-196)]         786-O          0.929
26  O=C(/C=C/c1ccc(CN(CCO)CCc2c[nH]c3ccccc23)cc1)NO [LAQ824 (Dacinostat)]         786-O           2.61
27  O=C(Nc1c[nH]nc1-c1nc2ccc(CN3CCOCC3)cc2[nH]1)NC1CC1         786-O           3.05
28  CN(C)C(=O)c1ccc(S(=O)(=O)c2ccc(NC(=O)[C@@](C)(O)C(F)(F)F)c(Cl)c2)cc1         786-O          0.701
29          Nc1nc(N)c2nc(-c3cccc(O)c3)cnc2n1         786-O          0.828
30  N#C[C@@H]1CCCN1C(=O)CNC12CC3CC(CC(O)(C3)C1)C2 [Vildagliptin (LAF-237)]         786-O           1.09
31  CCN1CCN(c2cc3c(cc2F)c(=O)c(C(=O)O)cn3C2CC2)CC1 [Enrofloxacin]         786-O          0.875
32  CO/N=C(\C(=O)N[C@@H]1C(=O)N2C(C(=O)O)=C(CSc3nc(=O)c(O)nn3C)CS[C@H]12)c1csc(N)n1 [Ceftriaxone Sodium Trihydrate]         786-O           1.01

* * *

- Tested on: A549
- ASSAY COMMENT: Euclidean distance of Cell Painting phenotypic profile (signed KS, 77 features) to DMSO centroid (dimensionless distance); 5 or 10 uM (library dependent); higher = stronger phenotypic change vs DMSO (phenoactivity)
- COND: 48 h
Where a name gives a salt, the structure may show the parent alone.
Let's look at some molecules and their measured Euclidean distance.
EXPERIMENTAL ENDPOINT: Euclidean distance

                                   molecule  numeric_value
0  CNC(=O)[C@H](Cc1ccccc1)NC(=O)[C@H](CC(C)C)[C@H](CSc1cccs1)C(=O)NO           1.51
1  COc1ccc2cc1Oc1ccc(cc1)C[C@H]1c3cc(c(OC)cc3CCN1C)Oc1c(O)c(OC)cc3c1[C@H](C2)N(C)CC3           4.12
2  CC(C)(O/N=C(\C(=O)N[C@@H]1C(=O)N2C(C(=O)[O-])=C(C[n+]3ccccc3)CS[C@H]12)c1csc(N)n1)C(=O)O          0.613
3  COC(=O)C1=CO[C@@H](O)[C@@H]2C(CO)=CC[C@H]12           1.13
4  CC[N+](C)(C)c1cccc(O)c1 [Edrophonium chloride]          0.865
5  OCC(O)CN1CCN(c2ccccc2)CC1 (stereo not drawn)            1.8
6  Oc1cc(O)c2c(c1)O[C@H](c1ccc(O)c(O)c1)[C@H](O)C2 [(-)Epicatechin]          0.627
7  CCOc1ccccc1OC(c1ccccc1)C1CNCCO1 (stereo not drawn) [Reboxetine mesylate]          0.873
